- protocol notes: Terminal half life in Balb/c mouse at 10 mg/kg, iv as bolus dose
- Assay type: ADME, organism-based
- Design: dose 10 mg/kg, route intravenous
- measurement setup: in vivo, read-out: beta t1/2 (converted)
assay readout: half-life (h)
Numeric answer only, unit h assumed.

stdin: Write down half-life measured for item CC(=O)N1c2ccc(-c3ccc(C(=O)O)cc3)cc2[C@H](Nc2ccc(Cl)cc2)C[C@@H]1C
stdout: 3.6

* * *

- system name: ATPase family AAA domain-containing protein 2 (Homo sapiens, UniProt Q6PL18)
- Sequence (Q6PL18 whole entry): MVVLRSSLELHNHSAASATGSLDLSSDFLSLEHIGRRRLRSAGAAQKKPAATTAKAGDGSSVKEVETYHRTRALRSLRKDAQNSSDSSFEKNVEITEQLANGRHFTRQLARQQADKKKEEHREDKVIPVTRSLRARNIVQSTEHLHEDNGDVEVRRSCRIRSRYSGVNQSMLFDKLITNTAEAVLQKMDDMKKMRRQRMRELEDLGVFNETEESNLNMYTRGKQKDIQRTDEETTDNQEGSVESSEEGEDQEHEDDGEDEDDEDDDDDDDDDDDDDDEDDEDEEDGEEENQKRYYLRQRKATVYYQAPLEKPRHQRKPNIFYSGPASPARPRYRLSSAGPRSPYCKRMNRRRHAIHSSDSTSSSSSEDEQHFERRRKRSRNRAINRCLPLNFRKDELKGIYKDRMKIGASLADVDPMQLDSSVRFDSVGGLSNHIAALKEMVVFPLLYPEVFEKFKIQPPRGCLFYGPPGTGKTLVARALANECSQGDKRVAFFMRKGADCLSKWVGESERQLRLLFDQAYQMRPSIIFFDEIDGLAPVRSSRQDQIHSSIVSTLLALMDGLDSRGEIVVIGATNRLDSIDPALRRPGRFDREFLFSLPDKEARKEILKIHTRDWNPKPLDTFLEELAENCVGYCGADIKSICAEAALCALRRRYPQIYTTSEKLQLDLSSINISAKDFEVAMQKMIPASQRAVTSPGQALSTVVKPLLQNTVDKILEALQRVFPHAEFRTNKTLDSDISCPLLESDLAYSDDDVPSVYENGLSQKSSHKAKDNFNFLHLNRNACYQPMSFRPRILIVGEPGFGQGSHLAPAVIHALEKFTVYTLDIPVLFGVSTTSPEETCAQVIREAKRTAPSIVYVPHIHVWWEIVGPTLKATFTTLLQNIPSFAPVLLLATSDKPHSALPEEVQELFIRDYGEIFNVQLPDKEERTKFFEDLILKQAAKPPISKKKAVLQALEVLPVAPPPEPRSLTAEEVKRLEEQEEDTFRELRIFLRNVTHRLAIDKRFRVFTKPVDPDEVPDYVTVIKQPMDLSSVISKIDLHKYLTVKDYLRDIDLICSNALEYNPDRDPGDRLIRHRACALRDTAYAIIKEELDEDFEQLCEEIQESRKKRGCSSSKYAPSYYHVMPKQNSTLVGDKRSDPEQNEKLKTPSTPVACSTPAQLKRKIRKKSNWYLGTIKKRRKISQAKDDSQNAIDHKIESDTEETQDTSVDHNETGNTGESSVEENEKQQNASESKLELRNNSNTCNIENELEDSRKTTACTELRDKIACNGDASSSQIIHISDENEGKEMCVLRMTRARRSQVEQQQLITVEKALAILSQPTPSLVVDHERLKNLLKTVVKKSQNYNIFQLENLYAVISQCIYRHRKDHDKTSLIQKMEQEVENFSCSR
- protocol notes: Inhibition of human ATAD2 by BROMOscan assay
pIC50: −log10 of the molar value.
assay readout: pIC50

stdin: Write down pIC50 measured for item CC(=O)N1c2ccc(-c3ccc(C(=O)O)cc3)cc2[C@H](Nc2ccc(Cl)cc2)C[C@@H]1C
stdout: < 4.50
